B1: library; numbered along this chain (parent)
chain: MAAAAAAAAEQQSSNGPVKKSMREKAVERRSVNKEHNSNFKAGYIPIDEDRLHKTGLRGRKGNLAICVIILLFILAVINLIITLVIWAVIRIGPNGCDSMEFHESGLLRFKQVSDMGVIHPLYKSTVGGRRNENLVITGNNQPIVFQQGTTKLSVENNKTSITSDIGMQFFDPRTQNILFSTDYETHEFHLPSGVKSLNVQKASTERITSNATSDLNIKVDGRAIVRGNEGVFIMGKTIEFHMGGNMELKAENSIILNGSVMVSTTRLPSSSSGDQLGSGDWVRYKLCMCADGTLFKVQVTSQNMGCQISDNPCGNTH

- Variants of: B1
- assay_name: SGCB cell-surface expression functional score (HA stain, bin4 vs bin1, normalised to synonymous) (log10 ratio); higher = more cell-surface SGCB (functional)
Assignment: determine reported SGCB cell-surface expression functional score (log10) for the given variants.
Answers are plain numbers.

[
  {
    "variant_descriptor": "T151N",
    "value_measured": -0.56
  },
  {
    "variant_descriptor": "Q147C",
    "value_measured": 0.5
  },
  {
    "variant_descriptor": "M289D",
    "value_measured": -0.92
  },
  {
    "variant_descriptor": "N211P",
    "value_measured": -0.12
  },
  {
    "variant_descriptor": "S31V",
    "value_measured": 0.19
  },
  {
    "variant_descriptor": "R91E",
    "value_measured": -0.8
  },
  {
    "variant_descriptor": "G117T",
    "value_measured": -0.96
  },
  {
    "variant_descriptor": "I239G",
    "value_measured": -0.41
  }
]

# return SGCB cell-surface expression functional score (log10) for each item in the list
1. S114M
2. A65S
3. S310G

### Response
[-0.25, 0.01, 0.34]
